Target: human ChemerinR (ChemR23) expressed in CHO-K1 cells (Homo sapiens)
Construct: This fragment was subcloned into the pcDNA3 (Invitrogen) vector; expressed in transfected cells; host or cells: CHO-K1 (co-expressing mitochondrial apoaequorin and Galpha16)
Sequence (Q99788 3-373): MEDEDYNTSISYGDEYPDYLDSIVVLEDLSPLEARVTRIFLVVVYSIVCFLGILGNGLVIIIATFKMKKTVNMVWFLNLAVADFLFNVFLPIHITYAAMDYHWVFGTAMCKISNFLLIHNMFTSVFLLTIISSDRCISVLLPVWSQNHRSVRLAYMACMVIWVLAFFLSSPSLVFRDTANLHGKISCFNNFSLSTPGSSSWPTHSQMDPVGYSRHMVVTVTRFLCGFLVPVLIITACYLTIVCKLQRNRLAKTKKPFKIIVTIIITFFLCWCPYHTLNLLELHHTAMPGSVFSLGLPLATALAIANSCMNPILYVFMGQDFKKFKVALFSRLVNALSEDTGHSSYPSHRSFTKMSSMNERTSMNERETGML
Experiment: aequorin-based intracellular Ca2+ release assay
Assay type: cell-based
Peptide text beside a SMILES is read from it.
I'd appreciate it if you could supply pEC50 values for the items below.
One number for each entry, as −log10 of the molar value.

| Compound | pEC50 |
| --- | --- |
| C[C@H](NC(=O)[C@H](Cc1ccccc1)NC(=O)[C@H](CCC(N)=O)NC(=O)CNC(=O)[C@@H]1CCCN1C(=O)[C@H](Cc1ccccc1)NC(=O)[C@H](Cc1ccc(O)cc1)NC(=O)[C@@H](N)Cc1ccccc1)C(=O)N[C@@H](Cc1ccccc1)C(=O)N[C@@H](CO)C(=O)O [Human Chemerin-10] (H-FYFPGQFAFS-OH; N-terminus and C-terminus assumed) | 8.09 |
| C[C@H](NC(=O)[C@H](Cc1ccccc1)NC(=O)[C@H](CCC(N)=O)NC(=O)CNC(=O)[C@@H]1CCCN1C(=O)[C@H](Cc1ccccc1)NC(=O)[C@H](Cc1ccc(O)cc1)NC(=O)[C@H](Cc1ccccc1)NC(=O)[C@H](CO)NC(=O)[C@H](Cc1c[nH]cn1)NC(=O)[C@@H]1CCCN1)C(=O)N[C@@H](Cc1ccccc1)C(=O)N[C@@H](CO)C(=O)O [Human Chemerin-13] (H-PHSFYFPGQFAFS-OH) | 7.85 |
| C[C@H](NC(=O)[C@H](Cc1ccccc1)NC(=O)[C@H](CCC(N)=O)NC(=O)CNC(=O)[C@@H]1CCCN1C(=O)[C@@H](N)Cc1ccccc1)C(=O)N[C@@H](Cc1ccccc1)C(=O)N[C@@H](CO)C(=O)O [Human Chemerin-8] (H-FPGQFAFS-OH; N-terminus and C-terminus assumed) | 5.70 |

Query compound follows.
## Task Write down pEC50 measured for item C[C@H](NC(=O)[C@H](Cc1ccccc1)NC(=O)[C@H](CCC(N)=O)NC(=O)CNC(=O)[C@@H]1CCCN1C(=O)[C@H](Cc1ccccc1)NC(=O)[C@H](Cc1ccc(O)cc1)NC(=O)[C@H](Cc1ccccc1)NC(=O)[C@H](CO)NC(=O)[C@H](Cc1c[nH]cn1)NC(=O)[C@@H]1CCCN1C(=O)[C@H](CC(=O)O)NC(=O)[C@H](CCC(=O)O)NC(=O)CNC(=O)[C@H](C)NC(=O)[C@H](CCCNC(=N)N)NC(=O)[C@@H](N)CCC(N)=O)C(=O)N[C@@H](Cc1ccccc1)C(=O)N[C@@H](CO)C(=O)O [Human Chemerin-19] (H-QRAGEDPHSFYFPGQFAFS-OH)
## Result 7.78

* * *

Target: ChemerinR (Homo sapiens, UniProt Q99788)
Construct: This fragment was subcloned into the pcDNA3 (Invitrogen) vector; expressed in transfected cells; CHO-K1 elsewhere)
Sequence (Q99788 3-373): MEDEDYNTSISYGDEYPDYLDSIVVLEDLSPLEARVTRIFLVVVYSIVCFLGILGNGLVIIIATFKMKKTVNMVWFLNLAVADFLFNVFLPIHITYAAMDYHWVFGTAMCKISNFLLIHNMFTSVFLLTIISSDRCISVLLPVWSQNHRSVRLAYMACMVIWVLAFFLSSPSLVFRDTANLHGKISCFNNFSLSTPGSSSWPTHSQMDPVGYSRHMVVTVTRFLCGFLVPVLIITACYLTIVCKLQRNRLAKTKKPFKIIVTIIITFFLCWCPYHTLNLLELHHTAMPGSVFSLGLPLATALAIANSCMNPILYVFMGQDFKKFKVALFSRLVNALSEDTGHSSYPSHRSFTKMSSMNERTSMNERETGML
Test: Calcium flux - Aequoscreen assay
Type: cell-based
Peptide text beside a SMILES is read from it.
Measurement Type: EC50 (nM)
One number for each entry, in nM.

| Compound | EC50 (nM) |
| --- | --- |
| CC(C)C[C@H](NC(=O)[C@@H](N)Cc1ccccc1)C(=O)N1CCC[C@H]1C(=O)NCC(=O)N[C@@H](CCC(N)=O)C(=O)N[C@@H](Cc1ccccc1)C(=O)N[C@@H](C)C(=O)N[C@@H](Cc1ccccc1)C(=O)N[C@@H](CO)C(=O)O (H-FLPGQFAFS-OH; N-terminus and C-terminus assumed) | 29.1 |
| C[C@H](NC(=O)[C@H](Cc1ccccc1)NC(=O)[C@H](CCC(N)=O)NC(=O)CNC(=O)[C@@H]1CCCN1C(=O)[C@H](Cc1ccccc1)NC(=O)[C@@H](N)Cc1ccc(O)cc1)C(=O)N[C@@H](Cc1ccccc1)C(=O)N[C@@H](CC(=O)O)C(N)=O (H-YFPGQFAFD-NH2; N-terminus assumed) | 4.3 |
| CC[C@H](C)[C@H](N)C(=O)N[C@@H](Cc1ccccc1)C(=O)N1CCC[C@H]1C(=O)NCC(=O)N[C@@H](CCC(N)=O)C(=O)N[C@@H](Cc1ccccc1)C(=O)N[C@@H](C)C(=O)N[C@@H](Cc1ccccc1)C(=O)N[C@@H](CO)C(=O)O (H-IFPGQFAFS-OH; N-terminus and C-terminus assumed) | 25.8 |

Let us examine a further case.
## Task Note EC50 for the compound shown: CC(C)C[C@H](N)C(=O)N[C@@H](Cc1ccccc1)C(=O)N1CCC[C@H]1C(=O)NCC(=O)N[C@@H](CCC(N)=O)C(=O)N[C@@H](Cc1ccccc1)C(=O)N[C@@H](C)C(=O)N[C@@H](Cc1ccccc1)C(=O)N[C@@H](CO)C(=O)O (H-LFPGQFAFS-OH; N-terminus and C-terminus assumed)
## Result 66.3

* * *

Provide the reported pEC50 of each item.
Molecular target: human ChemerinR (ChemR23) expressed in CHO-K1 cells (Homo sapiens, UniProt Q99788)
Construct: This fragment was subcloned into the pcDNA3 (Invitrogen) vector; expressed in transfected cells; host or cells: CHO-K1 (co-expressing mitochondrial apoaequorin and Galpha16)
Test: aequorin-based intracellular Ca2+ release assay
Type: cell-based
Method: Briefly, ChemerinR-expressing clones are transfected to coexpress mitochondrial apoaequorin and Gα16. Cells are incubated with 5 μM Coelenterazine H (Molecular Probes) for 4 hours at room temperature, washed in DMEM-F12 culture medium and resuspended at a concentration of 0.5×10^6 cells/ml. Cells are then mixed with test agonist peptides and light emission by the aequorin is recorded with a luminometer for 30 sec. Results are expressed as Relative Light Units (RLU). […]
Peptide text beside a SMILES is read from it.
Numbers only, as −log10 of the molar value.

The examples below pair each entry with its known result.
| Molecule | System | pEC50 |
| --- | --- | --- |
| C[C@H](NC(=O)[C@H](Cc1ccccc1)NC(=O)[C@H](CCC(N)=O)NC(=O)CNC(=O)[C@@H]1CCCN1C(=O)[C@H](Cc1ccccc1)NC(=O)[C@H](Cc1ccccc1)NC(=O)[C@H](Cc1ccccc1)NC(=O)[C@H](CO)NC(=O)[C@H](Cc1c[nH]cn1)NC(=O)[C@@H](N)Cc1ccc(O)cc1)C(=O)N[C@@H](Cc1ccccc1)C(=O)N[C@@H](CO)C(=O)O (H-YHSFFFPGQFAFS-OH; N-terminus and C-terminus assumed) | human ChemerinR (ChemR23) expressed in CHO-K1 cells (Homo sapiens, UniProt Q99788) | 7.55 |
| C[C@H](NC(=O)[C@H](Cc1ccccc1)NC(=O)[C@H](CCC(N)=O)NC(=O)CNC(=O)[C@@H]1CCCN1)C(=O)N[C@@H](Cc1ccccc1)C(=O)N[C@@H](CO)C(=O)O [Human Chemerin-7, PGQFAFS] (H-PGQFAFS-OH) | human ChemerinR (ChemR23) expressed in CHO-K1 cells (Homo sapiens, UniProt Q99788) | 3.66 |

Provide the reported pEC50 of each entry below, same order.
1. C[C@H](NC(=O)[C@H](Cc1ccccc1)NC(=O)[C@H](CCC(N)=O)NC(=O)CNC(=O)[C@@H]1CCCN1C(=O)[C@H](Cc1ccccc1)NC(=O)[C@H](Cc1ccc(O)cc1)NC(=O)[C@H](Cc1ccccc1)NC(=O)[C@H](CO)NC(=O)[C@@H](N)Cc1c[nH]cn1)C(=O)N[C@@H](Cc1ccccc1)C(=O)N[C@@H](CO)C(=O)O [Human Chemerin-12] (H-HSFYFPGQFAFS-OH; N-terminus and C-terminus assumed)
2. C[C@H](NC(=O)[C@H](CCCNC(=N)N)NC(=O)[C@@H](N)CCC(N)=O)C(=O)NCC(=O)N[C@@H](CCC(=O)O)C(=O)N[C@@H](CC(=O)O)C(=O)N1CCC[C@H]1C(=O)N[C@@H](Cc1c[nH]cn1)C(=O)N[C@@H](CO)C(=O)N[C@@H](Cc1ccccc1)C(=O)N[C@@H](Cc1ccc(O)cc1)C(=O)N[C@@H](Cc1ccccc1)C(=O)N1CCC[C@H]1C(=O)NCC(=O)N[C@@H](CCC(N)=O)C(=O)N[C@@H](Cc1ccccc1)C(=O)O [Human [ΔAla17Phe18Ser19] Chemerin-19] (H-QRAGEDPHSFYFPGQF-OH)
3. C[C@H](N)C(=O)N[C@@H](Cc1ccccc1)C(=O)N1CCC[C@H]1C(=O)NCC(=O)N[C@@H](CCC(N)=O)C(=O)N[C@@H](Cc1ccccc1)C(=O)N[C@@H](C)C(=O)N[C@@H](Cc1ccccc1)C(=O)N[C@@H](CO)C(=O)O [Human [Ala-1] Chemerin-9] (H-AFPGQFAFS-OH; N-terminus and C-terminus assumed)

## Result
7.91
3.89
6.30

Measured values drawn from patent US8030453B2 for this set.
